Tested on: Escherichia coli TOP10;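 note: peptides expressed intracellularly from a pBAD plasmid library in pooled LB shake-flask culture, induced with 0.3% L-arabinose, DNA abundance read by NGS, three biological replicates, DESeq2 with apeglm shrinkage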
Assay: shrunken log2 fold change of peptide-encoding DNA abundance (4.5 h post-induction vs induction); higher = less antimicrobial activity (less host growth inhibition)
Conditions: time post-induction: 4.5 h; library: site-saturation at positions 5, 18, 19, 20
quantityKind: shrunken log2 fold change
Answers are plain numbers.

{"columns": ["recordSequence", "quantityKind", "measured"],
 "data": [
  ["RRIRGRPPRLPRPRPRPFMCPRP", "shrunken log2 fold change", 0.224],
  ["RRIRCRPPRLPRPRPRPTKNPRP", "shrunken log2 fold change", 0.142],
  ["RRIRFRPPRLPRPRPRPAAVPRP", "shrunken log2 fold change", 0.169],
  ["RRIRTRPPRLPRPRPRPFKLPRP", "shrunken log2 fold change", -0.0476],
  ["RRIRLRPPRLPRPRPRPLGHPRP", "shrunken log2 fold change", -0.0858]
]}

Each of the following entries comes with a recorded value; kindly state shrunken log2 fold change for each.
1. RRIRERPPRLPRPRPRPSYLPRP
2. RRIRSRPPRLPRPRPRPVDKPRP

1. -1.2
2. -0.175
